# Tested on: Staphylococcus aureus
# Measurement Description: Antimicrobial activity against methicillin-sensitive Staphylococcus aureus by broth microdilution/CLSI method
# Type: functional
# Recorded Conditions: Staphylococcus aureus; read-out: MIC
Doc: threshold 0.5 µg/mL (exclusive). Items with MIC beneath it return t; others return f.

Known results for compounds:
>>> qualitative_label("CO[C@H]1CN(c2nc(-c3cn(C)cn3)c(C(=O)O)s2)CC[C@H]1NC(=O)c1[nH]c(C)c(Cl)c1Cl")
"t"
>>> qualitative_label("Cc1[nH]c(C(=O)N[C@@H]2CCN(c3ncc(C(=O)O)s3)C[C@@H]2O)c(Cl)c1Cl (racemic)")
"f"
>>> qualitative_label("COCC(COC)NC(=O)c1nc(N2CC[C@@H](NC(=O)c3[nH]c(C)c(Cl)c3Cl)[C@@H](OC)C2)sc1C(=O)O")
"t"
>>> qualitative_label("CO[C@H]1CN(c2nc(C(=O)NC[C@H](C)OC)c(C(=O)O)s2)CC[C@H]1NC(=O)c1[nH]c(C)c(Cl)c1Cl")
"t"
>>> qualitative_label("COCCO[C@H]1CN(c2ncc(C(=O)O)s2)CC[C@H]1NC(=O)c1[nH]c(C)c(Cl)c1Cl (racemic)")
"f"
>>> qualitative_label("COC[C@H]1CN(c2ncc(C(=O)O)s2)CC[C@H]1NC(=O)c1[nH]c(C)c(Cl)c1Cl (racemic)")
"f"
>>> qualitative_label("CO[C@H]1CN(c2nc(C(F)F)c(C(=O)O)s2)CC[C@H]1NC(=O)c1[nH]c(C)c(Cl)c1Cl")
"f"
>>> qualitative_label("C#CCO[C@H]1CN(c2ncc(C(=O)O)s2)CC[C@H]1NC(=O)c1[nH]c(C)c(Cl)c1Cl")
"t"

(Q) Please indicate whether the reported MIC of CO[C@H]1CN(c2nc(-c3ncnn3C)c(C(=O)O)s2)CC[C@H]1NC(=O)c1[nH]c(C)c(Cl)c1Cl is strictly below 0.5 µg/mL.
(A) t

(Q) Quick check: MIC of CO[C@H]1CO[C@]2(CN(c3ncc(C(=O)O)s3)CC[C@H]2NC(=O)c2[nH]c(C)c(Cl)c2Cl)OC1 (relative stereo) under 0.5 µg/mL?
(A) f

(Q) For Cc1[nH]c(C(=O)N[C@@H]2CCN(c3ncc(C(=O)O)s3)CC23OCCO3)c(Cl)c1Cl , is the recorded MIC below the cut-off of 0.5 µg/mL?
(A) f

(Q) Lab note: MIC threshold 0.5 µg/mL. Does this compound come in strictly under it? CNC(=O)c1nc(N2CC[C@@H](NC(=O)c3[nH]c(C)c(Cl)c3Cl)[C@@H](OC)C2)sc1C(=O)O
(A) t

(Q) Take the compound CO[C@H]1CN(c2nc(C(=O)O)c(C(N)=O)s2)CC[C@H]1NC(=O)c1[nH]c(C)c(Cl)c1Cl (racemic) and say whether its MIC is less than 0.5 µg/mL.
(A) f

(Q) Item CO[C@H]1CN(c2nc(-c3ccccn3)c(C(=O)O)s2)CC[C@H]1NC(=O)c1[nH]c(C)c(Cl)c1Cl : MIC beneath 0.5 µg/mL, strictly?
(A) t

All figures here come from ChEMBL document CHEMBL3352173.
